Below is a list of entries, each paired with its recorded apparent Kd (screen) value.
system: T1, TNFR1 (Homo sapiens, UniProt P19438)
T1 chain: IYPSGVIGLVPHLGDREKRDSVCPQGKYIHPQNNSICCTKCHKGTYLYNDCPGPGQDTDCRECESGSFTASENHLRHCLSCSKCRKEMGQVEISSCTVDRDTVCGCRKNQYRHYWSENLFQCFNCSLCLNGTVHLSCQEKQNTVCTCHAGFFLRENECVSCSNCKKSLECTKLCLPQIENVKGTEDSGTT
assayRemarks: yeast display SC50
The answer should read as a number with its unit following.

binder="E83F (designed binder) SMEEEVEKAAKEYEKKKKEAIEKHLEKLKAKDKEAAERFLKELEEAAKEYAKDEAKTMSEEEAKRRAKKYKEKVLLSELSEEFQKEIKEAEEKLVRTILKYVEEAAK" testresult="2.05 nM"

Challenge: Entry E12V (designed binder) SMEEEVEKAAKVYEKKKKEAIEKHLEKLKAKDKEAAERFLKELEEAAKEYAKDEAKTMSEEEAKRRAKKYKEKVLLSELSEEEQKEIKEAEEKLVRTILKYVEEAAK has what apparent Kd (screen)?
Response given: 0.956 nM
